Target: human GLP-1 receptor (hGLP1R) (human, UniProt P43220 24-463)
Assay: cell-based or functional assay
Numbered stars: 1 amine (or outer) side, 2 acyl side, 3 side chain; on linkers, the order of the positions; unused ones are H or OH. Square brackets hold non-standard residues; d marks the D form. Side chains are listed from the residue outwards. Ends that are not written are not given here. * marks the point of attachment. C20 diacid = O=C(O)CCCCCCCCCCCCCCCCCCC(=O)*; γGlu = O=C(O)[C@H](CCC(=O)[*:2])N[*:1]; AEEA = NCCOCCOCC(=O)O; Aib = CC(C)(N)C(=O)O
Measured Metric: pEC50 hGLPR1

H[Aib]EGTFTSDVSVLK([AEEA-AEEA-γGlu-C20 diacid])EEAA[Aib]QRFLEHLV-NH2 [SEQ ID NO: 35]	10.8 -log M
H[Aib]EGTFTSDVSELK([AEEA-AEEA-γGlu-C20 diacid])ELAAEQRFLEHLV-NH2 [SEQ ID NO: 36]	10.5 -log M
H[Aib]EGTFTSDVSYLK([AEEA-AEEA-γGlu-C20 diacid])ETAAEQRFLEHLV-NH2 [SEQ ID NO: 69]	10.8 -log M
H[Aib]EGTFTSDVSYLFEEA[Aib]LQRFLEK([AEEA-AEEA-γGlu-C20 diacid])LV-NH2 [SEQ ID NO: 176]	10.5 -log M
H[Aib]EGTFTSDVSVLK([AEEA-AEEA-γGlu-C20 diacid])E[Aib]AATQRFLEHLV-NH2 [SEQ ID NO: 49]	10.7 -log M
